Provide the reported inhibition of each item.
# tested-on: Ribosomal protein S6 kinase alpha-5 (Homo sapiens)
# protocol-conditions: at 0.1 µM
Your answer should be a plain number; it is taken to be in %.

Reported inhibition, compound COc1ccc2cc(-c3c(-c4ccncc4)nc(-c4ccc(S(C)(=O)=O)cc4C)n3C)ccc2c1 : ____ 3.82

Reported inhibition, compound NS(=O)(=O)c1ccc(N/N=C2\C(=O)Nc3ccc(-c4cnco4)cc32)cc1 : ____ -1.59

Reported inhibition, compound CS(=O)(=O)CCNCc1cc(-c2cc3c(Nc4ccc(OCc5cccc(F)c5)c(Cl)c4)ncnc3s2)cs1 : ____ 2.17

Reported inhibition, compound C#Cc1cccc(Nc2ncnc3ccc(OCCCCNCCS(C)(=O)=O)cc23)c1 : ____ 2.74

Reported inhibition, compound O=C1Nc2ccc(I)cc2C1=Cc1cc(Br)c(O)c(Br)c1 : ____ 1.69

Reported inhibition, compound CCS(=O)(=O)c1ccc(OC)c(Nc2ncc(-c3ccccc3Cl)o2)c1 : ____ 0.87

Reported inhibition, compound c1ccc(-c2n[nH]cc2-c2ccnc(-c3ccc(OCCN4CCOCC4)cc3)c2)nc1 : ____ 3.06

Reported inhibition, compound CCC(=O)Nc1ccc(C)c(-c2ccc(C(=O)NCC3CC3)cc2)c1 : ____ 0.17

Reported inhibition, compound O=C(NCC1CC1)c1ccc(-c2cccc(C(=O)NC3CC3)c2)cc1 : ____ 2.45

Reported inhibition, compound Fc1ccc(-c2ncn(C3CCNCC3)c2-c2ccnc(Oc3ccc(Oc4ccccc4)cc3)n2)cc1 : ____ 10.2

---

# Test system: Leucine-rich repeat serine/threonine-protein kinase 2 (Homo sapiens), Q5S007 [G2019S]
# Sequence (Q5S007 whole entry G2019S): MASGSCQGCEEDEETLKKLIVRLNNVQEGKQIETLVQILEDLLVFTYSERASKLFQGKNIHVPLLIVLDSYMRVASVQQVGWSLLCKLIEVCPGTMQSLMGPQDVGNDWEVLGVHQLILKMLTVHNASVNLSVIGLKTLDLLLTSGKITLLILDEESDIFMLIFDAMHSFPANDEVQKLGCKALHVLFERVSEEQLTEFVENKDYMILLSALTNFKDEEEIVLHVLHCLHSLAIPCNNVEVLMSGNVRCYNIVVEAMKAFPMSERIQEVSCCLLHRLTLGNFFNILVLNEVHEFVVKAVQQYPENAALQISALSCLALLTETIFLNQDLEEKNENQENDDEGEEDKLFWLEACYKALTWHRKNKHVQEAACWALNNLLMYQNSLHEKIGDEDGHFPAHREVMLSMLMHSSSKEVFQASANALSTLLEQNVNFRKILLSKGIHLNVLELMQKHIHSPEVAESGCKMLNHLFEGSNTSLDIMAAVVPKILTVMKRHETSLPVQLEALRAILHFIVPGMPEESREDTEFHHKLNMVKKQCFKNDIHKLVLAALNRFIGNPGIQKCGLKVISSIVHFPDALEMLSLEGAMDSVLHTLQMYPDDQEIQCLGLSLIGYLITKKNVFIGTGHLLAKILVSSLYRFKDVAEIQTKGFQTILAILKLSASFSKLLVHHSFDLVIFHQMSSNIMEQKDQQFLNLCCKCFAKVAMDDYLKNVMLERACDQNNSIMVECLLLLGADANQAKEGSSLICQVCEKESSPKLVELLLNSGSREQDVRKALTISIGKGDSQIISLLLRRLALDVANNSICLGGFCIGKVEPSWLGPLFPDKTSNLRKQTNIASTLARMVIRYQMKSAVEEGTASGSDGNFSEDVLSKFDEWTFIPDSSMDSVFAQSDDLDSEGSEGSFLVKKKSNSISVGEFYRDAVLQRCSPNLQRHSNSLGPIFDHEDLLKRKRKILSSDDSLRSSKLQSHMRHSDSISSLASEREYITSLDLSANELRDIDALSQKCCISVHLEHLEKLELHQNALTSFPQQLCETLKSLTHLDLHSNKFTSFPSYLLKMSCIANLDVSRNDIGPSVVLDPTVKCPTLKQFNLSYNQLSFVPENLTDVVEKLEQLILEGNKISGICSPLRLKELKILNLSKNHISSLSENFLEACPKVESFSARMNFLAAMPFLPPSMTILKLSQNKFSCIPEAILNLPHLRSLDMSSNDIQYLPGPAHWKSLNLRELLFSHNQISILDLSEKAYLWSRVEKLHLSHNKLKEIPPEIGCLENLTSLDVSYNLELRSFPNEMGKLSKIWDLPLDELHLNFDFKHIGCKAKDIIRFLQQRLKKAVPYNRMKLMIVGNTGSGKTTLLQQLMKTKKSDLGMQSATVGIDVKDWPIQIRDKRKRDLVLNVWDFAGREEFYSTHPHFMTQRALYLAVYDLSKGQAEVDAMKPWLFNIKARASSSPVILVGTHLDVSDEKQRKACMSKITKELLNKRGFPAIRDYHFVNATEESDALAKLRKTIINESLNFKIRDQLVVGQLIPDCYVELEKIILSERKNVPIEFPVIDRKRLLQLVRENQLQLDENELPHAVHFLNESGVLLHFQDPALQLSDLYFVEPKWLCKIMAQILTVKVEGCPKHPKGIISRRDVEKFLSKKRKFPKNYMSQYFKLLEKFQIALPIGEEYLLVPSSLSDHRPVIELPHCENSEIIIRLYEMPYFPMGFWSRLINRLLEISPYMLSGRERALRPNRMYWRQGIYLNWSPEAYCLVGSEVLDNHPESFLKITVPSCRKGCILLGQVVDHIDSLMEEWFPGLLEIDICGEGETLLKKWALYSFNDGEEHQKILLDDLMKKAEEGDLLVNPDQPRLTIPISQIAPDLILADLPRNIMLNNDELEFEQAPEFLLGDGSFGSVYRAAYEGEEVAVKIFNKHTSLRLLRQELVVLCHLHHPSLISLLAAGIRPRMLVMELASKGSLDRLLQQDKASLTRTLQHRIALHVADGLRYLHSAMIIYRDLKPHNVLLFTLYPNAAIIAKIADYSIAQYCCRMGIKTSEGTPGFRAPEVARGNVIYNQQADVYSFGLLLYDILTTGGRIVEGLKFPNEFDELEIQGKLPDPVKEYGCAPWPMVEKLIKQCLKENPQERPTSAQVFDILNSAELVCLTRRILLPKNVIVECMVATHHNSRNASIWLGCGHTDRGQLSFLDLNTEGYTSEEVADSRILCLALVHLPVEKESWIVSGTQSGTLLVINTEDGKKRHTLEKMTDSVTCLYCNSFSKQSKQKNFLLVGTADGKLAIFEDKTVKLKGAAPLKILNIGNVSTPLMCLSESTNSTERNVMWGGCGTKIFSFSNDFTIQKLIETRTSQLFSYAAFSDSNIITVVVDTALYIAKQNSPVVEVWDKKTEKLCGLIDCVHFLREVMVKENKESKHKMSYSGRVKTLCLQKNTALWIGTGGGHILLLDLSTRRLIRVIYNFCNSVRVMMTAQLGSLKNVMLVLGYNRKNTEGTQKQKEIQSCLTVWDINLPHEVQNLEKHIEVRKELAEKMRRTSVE
# protocol-conditions: at 1 µM
Provide the reported inhibition of each item.
Your answer should be a plain number; it is taken to be in %.

Reported inhibition, molecule O=C(NCC1CC1)c1ccc(-c2cccc(C(=O)NC3CC3)c2)cc1 : ____ 5.03

Reported inhibition, molecule COc1ccc(C2=C(N3CCc4ccccc43)C(=O)NC2=O)cc1 : ____ 13.9

Reported inhibition, molecule COC(=O)Nc1nc2ccc(Sc3ccc(NC(=O)Nc4cc(C(F)(F)F)ccc4F)cc3)cc2[nH]1 : ____ 4.85

Reported inhibition, molecule Cc1ccc(C(=O)NC(C)C)cc1-c1ccc(C(=O)NCC2CC2)cc1 : ____ 2.07

Reported inhibition, molecule CN1CCN(CCCNc2nc3ccc(Oc4ccc(NC(=O)Nc5cc(C(F)(F)F)ccc5F)cc4)cc3[nH]2)CC1 : ____ 4.43

Reported inhibition, molecule Fc1ccc(-c2c(-c3ccncc3)nc3n2CCS3)cc1 : ____ 0.48

Reported inhibition, molecule NC(=O)c1cc(-c2ccc(F)cc2)cc(-c2ccncc2)c1N : ____ 0.77

Reported inhibition, molecule CCN(CC)Cc1ccc(Nc2nccc(-c3cnn4ncccc34)n2)cc1 : ____ 19

Reported inhibition, molecule c1ccc(-c2n[nH]cc2-c2ccnc(-c3ccc(OCCN4CCOCC4)cc3)c2)nc1 : ____ 13.7

Reported inhibition, molecule N#Cc1ccc(Oc2nccc(-c3c(-c4ccc(F)cc4)ncn3C3CCNCC3)n2)cc1 : ____ 4.95

Reported inhibition, molecule CN(C)c1ccc2c(c1)/C(=C/Nc1ccc(S(N)(=O)=O)cc1)C(=O)N2 : ____ 36.4

Reported inhibition, molecule CN(c1ccc(NC(=O)Nc2c(Cl)cccc2Cl)cc1)c1ccnc(Nc2cccc(CS(C)(=O)=O)c2)n1 : ____ 20.4

Reported inhibition, molecule O=C(Nc1n[nH]c2nc(-c3ccco3)ccc12)C1CC1 : ____ 8.01

Reported inhibition, molecule NS(=O)(=O)c1ccc(N/N=C2\C(=O)Nc3ccc(C(=O)NCCCn4ccnc4)cc32)cc1 : ____ 38.8

Reported inhibition, molecule Fc1ccc(-c2ncn(C3CCNCC3)c2-c2ccnc(Oc3ccc4c(c3)OCO4)n2)cc1 : ____ 10.9

Reported inhibition, molecule COc1ccc2cc(-c3c(-c4ccncc4)nc(-c4ccc([S+](C)[O-])cc4C)n3C)ccc2c1 (stereo unspecified) : ____ 4.04

Reported inhibition, molecule C/C(Nc1ccc(S(N)(=O)=O)cc1)=C1/C(=O)Nc2ccccc21 : ____ 47.1

Reported inhibition, molecule CCc1ccc(Oc2nccc(-c3c(-c4ccc(F)cc4)ncn3C3CCNCC3)n2)cc1 : ____ 6.63

Reported inhibition, molecule Fc1ccc(-c2ncn(C3CCNCC3)c2-c2ccnc(Oc3ccc(Oc4ccccc4)cc3)n2)cc1 : ____ 8.01

Reported inhibition, molecule COc1cc(C)c(N(C)C(=O)CN(C)C)cc1Nc1nc(Nc2cccc(F)c2C(N)=O)c2cc[nH]c2n1 : ____ 57.7

Reported inhibition, molecule O=C(Nc1ccc(Oc2ccc3[nH]c(NC(=O)c4ccccc4)nc3c2)cc1)Nc1cc(C(F)(F)F)ccc1F : ____ 36.1

Reported inhibition, molecule Fc1ccc(-c2ncn(C3CCNCC3)c2-c2ccnc(Oc3ccc(F)c(F)c3)n2)cc1 : ____ 2.39

Reported inhibition, molecule NS(=O)(=O)c1ccc(N/N=C2\C(=O)Nc3ccc(-c4cnco4)cc32)cc1 : ____ 55.8

Reported inhibition, molecule O=C(Nc1n[nH]c2cc(-c3cc(F)ccc3F)ccc12)C1CC1 : ____ 6.24

Reported inhibition, molecule NC(=O)c1cc(-c2ccncc2)cc(-c2ccccc2)c1N : ____ 12.3

Reported inhibition, molecule NS(=O)(=O)c1ccc(Nc2cc(-c3ccc(O)c(F)c3)n[nH]2)cc1 : ____ 29.7

Entry source: ChEMBL document CHEMBL1961873
